Cited source: patent US20180273528A1

- assayTarget: DYRK1B (Homo sapiens)
- Construct: full-length human kinases from Carna Biosciences; purchased Carna Biosciences 04-131
- Sequence (Q9Y463 whole entry): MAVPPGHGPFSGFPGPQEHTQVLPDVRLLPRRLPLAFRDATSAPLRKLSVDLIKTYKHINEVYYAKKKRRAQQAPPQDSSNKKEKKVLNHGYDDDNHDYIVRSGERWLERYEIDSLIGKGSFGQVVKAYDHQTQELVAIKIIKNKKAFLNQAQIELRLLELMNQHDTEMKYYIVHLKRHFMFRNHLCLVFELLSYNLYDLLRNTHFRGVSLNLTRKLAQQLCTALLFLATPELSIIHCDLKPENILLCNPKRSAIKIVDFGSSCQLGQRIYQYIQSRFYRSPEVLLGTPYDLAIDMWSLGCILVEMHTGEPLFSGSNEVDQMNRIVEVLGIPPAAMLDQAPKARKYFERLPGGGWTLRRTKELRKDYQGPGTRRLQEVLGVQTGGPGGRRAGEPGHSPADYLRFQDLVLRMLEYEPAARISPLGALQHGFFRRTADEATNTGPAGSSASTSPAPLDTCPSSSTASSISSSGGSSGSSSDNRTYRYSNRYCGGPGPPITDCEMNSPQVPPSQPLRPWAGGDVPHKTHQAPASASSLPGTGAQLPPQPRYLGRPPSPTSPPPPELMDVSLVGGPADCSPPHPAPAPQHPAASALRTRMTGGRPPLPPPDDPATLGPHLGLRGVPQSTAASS
- assaySummary: Kinase TR-FRET assay, DYRK1B
- Format: biochemical
- measurementParameters: full-length human kinase, 10 μM ATP
// assign y if IC50 falls strictly below 0.007 µM, else n (ties count as n)

{"smilesCode": "Cc1nc2ccc(-c3cc(N)nc(N)c3)nc2n1CC1Cc2ccccc2C1", "labelValue": "n"}
{"smilesCode": "Cc1nc2ccc(-c3ccnc(N)c3)nc2n1CC1CC1", "labelValue": "n"}
{"smilesCode": "Cc1nc2ccc(-c3cc(N)nc(N)c3)nc2n1C(C)(C)C", "labelValue": "y"}
{"smilesCode": "COCCCCn1c(C)nc2ccc(-c3cc(N)nc(N)c3)nc21", "labelValue": "n"}

Here is the next item to consider.
Decide: IC50 of Cc1nc2ccc(-c3cc(N)nc(N)c3)nc2n1C1CC1 strictly below 0.007 µM? y

* * *

- assayTarget: DYRK1A (Homo sapiens, UniProt Q13627)
- assaySummary: Kinase TR-FRET assay, DYRK1A
- Type: biochemical
- Set-up: full-length, wild-type human DYRK1A (NM_001396) with an HA tag; expressed in transfected cells; host or cells: human U2-OS osteosarcoma cells, transient transfection of a pcDNA3.1 plasmid
- measurementParameters: full-length human kinase, 10 μM ATP
Reported log10(IC50) is given for each of the following compounds.
Give log10 of IC50, with IC50 taken in µM.

// returns reported log10(IC50) for input Cc1nc2ccc(-c3cc(N)nc(N)c3)nc2n1CCc1ccco1 -2.52

What does the data say about its log10(IC50)? Entry: Cc1nc2ccc(-c3cc(N)nc(N)c3)nc2n1CCOc1ccccc1 -3.00

May I ask what log10(IC50) has been recorded for Cc1nc2ccc(-c3cc(N)nc(N)c3)nc2[nH]1 ? -2.70

* * *

- assayTarget: His-TEV-DYRK1A Kinase domain (aa127-485) (Homo sapiens, UniProt Q13627)
- Construct: His-TEV-DYRK1A Kinase domain (aa127-485); His tag (N); TEV protease cleavage site (N)
- assaySummary: Kinase ADP assay (ADP Hunter), DYRK1A kinase domain
- Assay type: biochemical
- measurementParameters: 20 μM ATP
Criterion: IC50 strictly less than 0.05 µM. Met: y. Not met: n.

Solved cases below.
{"compound": "Cc1nc2ccc(-c3cc(N)nc(N)c3)nc2n1C[C@@H](C)Oc1ccccc1F (single isomer, unassigned)", "labelValue": "y"}
{"compound": "Cn1c(C#N)nc2ccc(-c3cc(N)nc(N)c3)nc21", "labelValue": "y"}
{"compound": "Cc1nc2ccc(-c3cc(N)nc(N)c3)nc2n1CCC1CCCC1", "labelValue": "y"}
{"compound": "Cc1nc2ccc(-c3cc(N)nc(N)c3)nc2n1CC12CC3CC(CC(C3)C1)C2", "labelValue": "n"}
{"compound": "Cc1nc2ccc(-c3cc(N)nc(N)c3)nc2n1CCOc1ccnn1C", "labelValue": "n"}
{"compound": "Cc1nc2ccc(-c3cc(N)nc(N)c3)nc2n1[C@@H](C)COc1ccccc1 (single isomer, unassigned)", "labelValue": "n"}
{"compound": "CCCCn1c(C)nc2ccc(-c3cc(N)nc(NC(=O)COc4ccccc4)c3)nc21", "labelValue": "n"}
{"compound": "CCCCn1c(C)nc2ccc(-c3ccnc(N)c3)nc21", "labelValue": "y"}
{"compound": "Cc1nc2ccc(-c3cc(N)nc(N)c3)nc2n1CCOc1cccc2ccccc12", "labelValue": "n"}
{"compound": "Cc1nc2ccc(-c3cc(N)nc(N)c3)nc2n1C[C@@H](C)Oc1ncccc1Cl (single isomer, unassigned)", "labelValue": "n"}

Take the compound Nc1cc(-c2ccc3nc(Cl)n(C4CCCC4)c3n2)cc(N)n1 and say whether its IC50 is less than 0.05 µM. y

Decide: IC50 of Cc1nc2ccc(-c3cc(N)nc(N)c3)nc2n1CCCOc1ccccc1 strictly below 0.05 µM? y

Does the reported IC50 of Cc1nc2ccc(-c3cc(N)nc(N)c3)nc2n1CC(F)F stay below 0.05 µM? y

Here's an entry: Cn1c(C(F)(F)F)nc2ccc(-c3cc(N)nc(N)c3)nc21 . Is its IC50 below 0.05 µM? n

Please let me know if CCn1c(C)nc2ccc(-c3cc(N)nc(N)c3)nc21 shows IC50 below 0.05 µM. y

Below 0.05 µM on IC50? Entry Cc1nc2ccc(-c3cc(N)nc(N)c3)nc2n1CCOc1cccnc1 y

Hello, I'm reviewing records and need to know if IC50 of Cc1nc2ccc(-c3cc(N)nc(N)c3)nc2n1CCOc1ccc(Cl)cc1 is below 0.05 µM. Could you check? y

Does C=CCCn1c(C)nc2ccc(-c3cc(N)nc(N)c3)nc21 have IC50 strictly under 0.05 µM? y

* * *

- assayTarget: CLK1 (Homo sapiens, UniProt P49759)
- Construct: full-length human kinases from Carna Biosciences; purchased Carna Biosciences 04-126
- Sequence (P49759 1-526 isoform P49759-3): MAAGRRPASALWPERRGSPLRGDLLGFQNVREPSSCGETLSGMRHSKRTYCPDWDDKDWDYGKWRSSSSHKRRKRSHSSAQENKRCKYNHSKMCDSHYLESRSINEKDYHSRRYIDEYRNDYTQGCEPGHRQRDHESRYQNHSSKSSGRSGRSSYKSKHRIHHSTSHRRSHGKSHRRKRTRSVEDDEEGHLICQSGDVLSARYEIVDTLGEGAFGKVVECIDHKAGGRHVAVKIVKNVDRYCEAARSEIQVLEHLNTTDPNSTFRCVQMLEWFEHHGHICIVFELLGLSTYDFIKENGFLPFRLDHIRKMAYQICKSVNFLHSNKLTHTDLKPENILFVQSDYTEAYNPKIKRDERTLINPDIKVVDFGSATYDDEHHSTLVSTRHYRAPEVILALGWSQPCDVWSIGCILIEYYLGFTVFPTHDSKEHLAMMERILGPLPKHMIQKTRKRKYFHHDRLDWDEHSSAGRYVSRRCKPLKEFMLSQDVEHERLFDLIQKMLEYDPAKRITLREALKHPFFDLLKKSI
- assaySummary: Kinase TR-FRET assay, CLK1
- Assay type: biochemical
- measurementParameters: full-length human kinase, 10 μM ATP
IC50 for assorted molecules
Numeric answer only, unit µM assumed.

In the examples that follow, each entry is paired with its recorded IC50.
{"molecule": "CCCCn1c(CCC)nc2ccc(-c3cc(N)nc(N)c3)nc21 [Example 161]", "assayTarget": "CLK1 (Homo sapiens, UniProt P49759)", "IC50, µM": 0.218}
{"molecule": "Cc1nc2ccc(-c3cc(N)nc(N)c3)nc2n1CC1CC1c1ccccc1 (centres unmarked) [Example 97]", "assayTarget": "CLK1 (Homo sapiens, UniProt P49759)", "IC50, µM": 0.021}
{"molecule": "Cc1nc2ccc(-c3cc(N)nc(N)c3)nc2n1CC1Cc2ccccc21 (single isomer, unassigned) [Example 112]", "assayTarget": "CLK1 (Homo sapiens, UniProt P49759)", "IC50, µM": 0.025}

# IC50 lookup, item Cc1nc2ccc(-c3cc(N)nc(N)c3)nc2n1C[C@@H]1C[C@H]1c1ccccc1 (single isomer, unassigned) [Example 110] 0.02

Look up IC50: C=CCn1c(C)nc2ccc(-c3cc(N)nc(N)c3)nc21 [Example 51] 0.029

Which IC50 reading was recorded for the molecule COc1cc(Cn2c(C)nc3ccc(-c4cc(N)nc(N)c4)nc32)ccn1 [Example 72] ? 0.09

Using the record for Cc1nc2ccc(-c3cc(N)nc(N)c3)nc2n1CCC(C)C [Example 75] , report its IC50. 0.019

Given the entry COc1ccccc1OCCn1c(C)nc2ccc(-c3cc(N)nc(N)c3)nc21 [Example 206] , report its measured IC50. 0.028

* * *

- assayTarget: His-TEV-DYRK1A Kinase domain (aa127-485) (Homo sapiens)
- Construct: His-TEV-DYRK1A Kinase domain (aa127-485); His tag (N); TEV protease cleavage site (N)
- assaySummary: Kinase ADP assay (ADP Hunter), DYRK1A kinase domain
- Assay type: biochemical
- measurementParameters: 20 μM ATP
# IC50 listing for each entry below
Please state the figure in µM; there is no need to write the unit.

Record excerpt, results attached:
{"compound": "Cc1cccc(O[C@H](C)Cn2c(C)nc3ccc(-c4cc(N)nc(N)c4)nc32)c1 (single isomer, unassigned) [Example 128]", "IC50 (µM)": 0.037}
{"compound": "Cc1nc2ccc(-c3cc(N)nc(N)c3)nc2n1C[C@H](C)N(C)c1ccccc1 (single isomer, unassigned) [Example 122]", "IC50 (µM)": 0.02}
{"compound": "Cc1nc2ccc(-c3cc(N)nc(N)c3)nc2n1C[C@H](C)Oc1ccc(Br)cn1 (single isomer, unassigned) [Example 186]", "IC50 (µM)": 0.154}

With those in mind, consider the next compound.
Would you mind telling me what IC50 value was observed for Cc1nc2ccc(-c3cc(N)nc(N)c3)nc2n1C[C@@H](C)Oc1ccccc1 (single isomer, unassigned) [Example 106] ? 0.012

* * *

- assayTarget: CDK9 (Homo sapiens)
- Construct: full-length human kinases from Carna Biosciences; purchased Carna Biosciences 04-110
- Sequence (P50750 whole entry): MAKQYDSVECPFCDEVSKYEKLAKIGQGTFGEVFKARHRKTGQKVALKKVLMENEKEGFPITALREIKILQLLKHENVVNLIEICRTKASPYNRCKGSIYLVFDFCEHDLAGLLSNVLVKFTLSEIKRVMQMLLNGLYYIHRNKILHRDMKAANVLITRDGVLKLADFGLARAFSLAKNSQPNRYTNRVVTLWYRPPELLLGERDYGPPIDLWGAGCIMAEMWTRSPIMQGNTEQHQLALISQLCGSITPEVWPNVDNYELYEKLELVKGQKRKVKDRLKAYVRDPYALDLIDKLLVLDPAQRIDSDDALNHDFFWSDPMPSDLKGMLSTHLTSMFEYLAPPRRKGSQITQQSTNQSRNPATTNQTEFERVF
- Sequence (O60563 whole entry partner): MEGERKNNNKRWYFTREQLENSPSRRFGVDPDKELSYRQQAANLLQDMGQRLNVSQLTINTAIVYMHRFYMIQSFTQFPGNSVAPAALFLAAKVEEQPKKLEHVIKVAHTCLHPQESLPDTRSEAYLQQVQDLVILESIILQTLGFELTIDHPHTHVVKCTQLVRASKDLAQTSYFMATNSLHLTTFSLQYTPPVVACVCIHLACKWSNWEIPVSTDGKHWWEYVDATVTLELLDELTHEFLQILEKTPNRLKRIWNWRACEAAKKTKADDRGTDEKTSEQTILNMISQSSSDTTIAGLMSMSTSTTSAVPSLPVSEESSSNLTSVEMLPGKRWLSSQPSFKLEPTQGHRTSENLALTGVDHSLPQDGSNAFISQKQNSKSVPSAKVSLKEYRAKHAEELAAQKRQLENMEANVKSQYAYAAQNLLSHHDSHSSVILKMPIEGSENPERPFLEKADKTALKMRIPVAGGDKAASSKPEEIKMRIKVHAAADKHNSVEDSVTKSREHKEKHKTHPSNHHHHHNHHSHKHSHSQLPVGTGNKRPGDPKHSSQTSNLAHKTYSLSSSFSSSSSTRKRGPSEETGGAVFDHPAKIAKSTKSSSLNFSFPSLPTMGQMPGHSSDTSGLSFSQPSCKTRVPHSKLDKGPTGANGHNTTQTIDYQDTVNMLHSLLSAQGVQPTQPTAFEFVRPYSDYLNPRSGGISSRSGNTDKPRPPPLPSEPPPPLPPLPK
- assaySummary: Kinase TR-FRET assay, CDK9
- Format: biochemical
- measurementParameters: full-length human kinase, 10 μM ATP
Could you please mark TRUE for values of IC50 below 2 µM and FALSE for values at or above it?

For orientation, consider the following solved cases.
{"molecule": "Cc1nc2ccc(-c3cc(N)nc(N)c3)nc2n1C[C@H](C)Oc1ccccc1 (single isomer, unassigned)", "labelValue": "FALSE"}
{"molecule": "CCCCCn1c(C)nc2ccc(-c3cc(N)nc(N)c3)nc21", "labelValue": "FALSE"}
{"molecule": "Cc1nc2ccc(-c3cc(N)nc(N)c3)nc2n1CCOc1ccc2[nH]ccc2c1", "labelValue": "TRUE"}
{"molecule": "CCCCc1nc2ccc(-c3cc(N)nc(N)c3)nc2n1CCCC", "labelValue": "FALSE"}
{"molecule": "CCC(CC)n1c(C)nc2ccc(-c3cc(N)nc(N)c3)nc21", "labelValue": "FALSE"}

Hello, I'm reviewing records and need to know if IC50 of Cc1nc2ccc(-c3cc(N)nc(N)c3)nc2n1CCc1ccc(F)cc1 is below 2 µM. Could you check? FALSE

Hello, I'm reviewing records and need to know if IC50 of Cc1nc2ccc(-c3cc(N)nc(N)c3)nc2n1Cc1ccoc1 is below 2 µM. Could you check? FALSE

Record Cc1nc2ccc(-c3cc(N)nc(N)c3)nc2n1C1CC(F)(F)C1 : is its IC50 strictly below 2 µM? TRUE
